- subjectOfTest: hERG (KCNH2) (Homo sapiens, UniProt Q12809)
- Sequence (Q12809 whole entry): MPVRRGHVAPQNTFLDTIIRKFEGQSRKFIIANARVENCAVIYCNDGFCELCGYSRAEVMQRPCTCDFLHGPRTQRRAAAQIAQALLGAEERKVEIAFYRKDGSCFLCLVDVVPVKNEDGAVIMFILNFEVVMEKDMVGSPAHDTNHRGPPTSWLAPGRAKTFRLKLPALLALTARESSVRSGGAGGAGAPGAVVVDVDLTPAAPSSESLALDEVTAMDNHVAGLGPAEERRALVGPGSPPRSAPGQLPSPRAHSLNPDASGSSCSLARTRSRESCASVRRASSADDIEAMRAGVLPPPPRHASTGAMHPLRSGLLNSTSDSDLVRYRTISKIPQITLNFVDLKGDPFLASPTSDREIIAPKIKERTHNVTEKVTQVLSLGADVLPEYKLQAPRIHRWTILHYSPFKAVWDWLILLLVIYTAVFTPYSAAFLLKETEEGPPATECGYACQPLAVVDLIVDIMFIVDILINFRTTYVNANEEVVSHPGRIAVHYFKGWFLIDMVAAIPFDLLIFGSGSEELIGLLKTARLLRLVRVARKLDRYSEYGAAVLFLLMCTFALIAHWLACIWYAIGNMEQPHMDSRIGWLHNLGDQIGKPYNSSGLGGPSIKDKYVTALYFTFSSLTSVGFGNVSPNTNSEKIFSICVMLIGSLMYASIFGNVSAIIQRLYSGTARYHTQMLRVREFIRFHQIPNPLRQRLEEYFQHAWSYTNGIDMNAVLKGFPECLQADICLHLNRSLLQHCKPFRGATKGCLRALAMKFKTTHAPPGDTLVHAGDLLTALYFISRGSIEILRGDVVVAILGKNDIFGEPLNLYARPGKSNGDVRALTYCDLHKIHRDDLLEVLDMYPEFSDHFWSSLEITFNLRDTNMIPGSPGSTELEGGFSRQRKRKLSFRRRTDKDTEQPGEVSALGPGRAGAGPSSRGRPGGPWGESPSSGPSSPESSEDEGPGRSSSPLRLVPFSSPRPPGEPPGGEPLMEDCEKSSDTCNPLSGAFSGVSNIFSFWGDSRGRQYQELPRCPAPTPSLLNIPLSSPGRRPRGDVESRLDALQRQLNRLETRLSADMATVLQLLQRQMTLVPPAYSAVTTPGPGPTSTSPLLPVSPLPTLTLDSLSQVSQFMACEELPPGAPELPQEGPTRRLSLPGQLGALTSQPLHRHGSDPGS
- testMethodNotes: Inhibition of hERG expressed in CHO cells at 5 ug/mL by rubidium efflux assay
- Format: toxicity, cell-based
- conditionParameters: CHO cells that express hERG
Would you kindly list inhibition at 5 ug/mL for each of these molecules?
Answers are plain numbers, in %.

INSERT INTO assay_data (molecule, readoutunit, measurement) VALUES
  ('CC(=O)NCc1cccc([C@]23CC[C@@H](N(CCN(C(C)C)C(C)C)C(=O)Nc4ccc(F)c(Cl)c4)CC2C3)c1 (some centres undefined)', '%', 78);

Required: inhibition at 5 ug/mL, one value per molecule below.
1. N#Cc1cccc([C@]23CC[C@@H](N(CCN4CCC[C@H]4CO)C(=O)Nc4ccc(F)c(Cl)c4)CC2C3)c1 (some centres undefined)
2. N#Cc1cccc([C@]23CC[C@@H](N(CCNCCF)C(=O)Nc4cc(Cl)nc(Cl)c4)CC2C3)c1 (some centres undefined)
3. COC(=O)c1cccc([C@]23CC[C@@H](N(CCN(C(C)C)C(C)C)C(=O)Nc4ccc(F)c(F)c4)CC2C3)c1 (some centres undefined)

[reply]
1: 75; 2: 84; 3: 85

----------
- subjectOfTest: Melanin-concentrating hormone receptor 1 (Mus musculus)
- testMethodNotes: Ex vivo displacement of [125I]S36057 binding from mouse brain MCHR1 at 30 mg/kg, po after 24 hrs
- Format: functional, organism-based
- Parameters: dose 30 mg/kg
metric: Activity

Example cases with answers are listed next.
INSERT INTO assay_data (compound, measurement) VALUES
  ('CC(C)N(CCN(C(=O)Nc1cc(Cl)nc(Cl)c1)[C@@H]1CC[C@]2(c3cccc(C#N)c3)CC2C1)C(C)C (stereo in doubt; 13)', '58%'),
  ('CC1CC[C@@H](CO)N1CCN(C(=O)Nc1cc(Cl)nc(Cl)c1)[C@@H]1CC[C@]2(c3cccc(C#N)c3)CC2C1 (some centres undefined)', '41%');

The compound identified as NCc1ccc(C2=CCC(N(CCN3CCCC3)C(=O)Nc3ccc(F)c(Cl)c3)CC2)s1 (centres undefined) registered its Activity at 57%

----------
Observed Ki for Melanin-concentrating hormone receptor 1 (Homo sapiens), reported per entry below.
Answers are plain numbers, in nM.

Reference set, count: 3
INSERT INTO measurements (compound, measurement) VALUES
  ('CS(=O)(=O)N1CCC(CN(C(=O)Nc2cccc(F)c2)[C@@H]2CC[C@]3(c4cccc(C#N)c4)CC3C2)CC1 (some centres undefined)', 9.7),
  ('CS(=O)(=O)N1CCC[C@H]1CN(C(=O)Nc1ccc(F)c(Cl)c1)[C@@H]1CC[C@]2(c3cccc(C#N)c3)CC2C1 (some centres undefined)', 559),
  ('CCS(=O)(=O)N1CCC(CN(C(=O)Nc2ccc(F)c(F)c2)[C@@H]2CC[C@]3(c4cccc(C#N)c4)CC3C2)CC1 (some centres undefined)', 21);

GET /value?item= CC(C)N(CCN(C(=O)Nc1cc(Cl)nc(Cl)c1)[C@@H]1CC[C@]2(c3cccc(C#N)c3)CC2C1)[C@@H](C)CO (some centres undefined) &field=Ki returns 1.6

----------
- subjectOfTest: UniProt:Q8JZL2
- Sequence (Q8JZL2 whole entry): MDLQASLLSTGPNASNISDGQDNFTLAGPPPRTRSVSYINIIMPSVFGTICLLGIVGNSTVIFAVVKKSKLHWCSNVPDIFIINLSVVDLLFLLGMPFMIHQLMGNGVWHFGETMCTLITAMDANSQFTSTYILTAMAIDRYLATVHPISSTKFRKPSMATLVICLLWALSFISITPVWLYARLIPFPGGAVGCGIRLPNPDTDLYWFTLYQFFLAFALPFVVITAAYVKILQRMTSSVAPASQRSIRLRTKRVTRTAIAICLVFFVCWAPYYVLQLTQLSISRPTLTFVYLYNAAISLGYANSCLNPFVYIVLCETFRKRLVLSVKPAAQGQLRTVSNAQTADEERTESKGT
- testMethodNotes: Ex vivo displacement of [125I]S36057 binding from mouse brain MCHR1 at 30 mg/kg, po after 24 hrs
- Format: functional, organism-based
- Set-up: dose 30 mg/kg
Activity calls are given as the source filed them. No cut-off for these calls is given here.
metric: Activity

Recorded Activity, per entry:
INSERT INTO assay_data (compound, measurement) VALUES
  ('CC(C)N(CCF)CCN(C(=O)Nc1ccc(F)c(Cl)c1)[C@@H]1CC[C@]2(c3cccc(C#N)c3)CC2C1 (stereo partly drawn)', '66%'),
  ('CC(=O)c1ccc(C2=CCC(N(CCN3CCCC3)C(=O)Nc3ccc(F)c(Cl)c3)CC2)s1 (stereo not drawn)', '3%'),
  ('CC(C)N(CCN(C(=O)Nc1ccc(F)c(Cl)c1)[C@@H]1CC[C@]2(c3cccc(C#N)c3)CC2C1)[C@@H](C)CO (stereo partly drawn)', '35%'),
  ('CC(C)NCCN(C(=O)Nc1cc(Cl)nc(Cl)c1)[C@@H]1CC[C@]2(c3cccc(C#N)c3)CC2C1 (stereo partly drawn)', '70%'),
  ('CC(C)N(CCF)CCN(C(=O)Nc1cc(Cl)nc(Cl)c1)[C@@H]1CC[C@]2(c3cccc(C#N)c3)CC2C1 (stereo partly drawn)', '97%'),
  ('CO/N=C/c1cccc([C@]23CC[C@@H](N(CCN(C(C)C)C(C)C)C(=O)Nc4ccc(F)c(Cl)c4)CC2C3)c1 (stereo partly drawn)', 'inactive'),
  ('N#Cc1cccc([C@]23CC[C@@H](N(CCN4CCC[C@H]4CO)C(=O)Nc4ccc(F)c(Cl)c4)CC2C3)c1 (stereo partly drawn)', 'inactive');

Next up:
Activity value, target or system UniProt:Q8JZL2, for NCc1ncc(C2=CCC(N(CCN3CCCC3)C(=O)Nc3ccc(F)c(Cl)c3)CC2)s1 (stereo not drawn) : 75%

----------
# Ki per entry for Melanin-concentrating hormone receptor 1 (Homo sapiens)

Known Ki results, listed for orientation:
INSERT INTO results (molecule, subjectoftest, measurement) VALUES
  ('CC(C)N(CCN(C(=O)Nc1ccc(F)c(Cl)c1)[C@@H]1CC[C@]2(c3cccc(C#N)c3)CC2C1)[C@H](C)CO (stereo partly drawn)', 'Melanin-concentrating hormone receptor 1 (Homo sapiens)', '9.4 nM'),
  ('NCc1ncc(C2=CCC(N(CCN3CCCC3)C(=O)Nc3ccc(F)c(Cl)c3)CC2)s1 (stereo not drawn)', 'Melanin-concentrating hormone receptor 1 (Homo sapiens)', '13 nM'),
  ('CC(C)N(CCF)CCN(C(=O)Nc1cc(Cl)nc(Cl)c1)[C@@H]1CC[C@]2(c3cccc(C#N)c3)CC2C1 (stereo partly drawn)', 'Melanin-concentrating hormone receptor 1 (Homo sapiens)', '10 nM'),
  ('N#Cc1cccc([C@]23CC[C@@H](N(CCN4CCCCCC4)C(=O)Nc4ccc(F)c(Cl)c4)CC2C3)c1 (stereo partly drawn)', 'Melanin-concentrating hormone receptor 1 (Homo sapiens)', '15 nM'),
  ('NCc1cnc(C2=CCC(N(CCN3CCCC3)C(=O)Nc3ccc(F)c(Cl)c3)CC2)s1 (stereo not drawn)', 'Melanin-concentrating hormone receptor 1 (Homo sapiens)', '17 nM');

Working through the 3 molecules below one at a time, give Ki for each.
1. CS(=O)(=O)N1CCC(CN(C(=O)Nc2cc(Cl)nc(Cl)c2)[C@@H]2CC[C@]3(c4cccc(CN5CC[C@H](O)C5)c4)CC3C2)CC1 (stereo partly drawn)
2. CC1CCCN1CCN(C(=O)Nc1ccc(F)c(Cl)c1)[C@@H]1CC[C@]2(c3cccc(C#N)c3)CC2C1 (stereo partly drawn)
3. CC(C)N(CCN(C(=O)Nc1ccc(F)cc1)[C@@H]1CC[C@]2(c3cccc(C#N)c3)CC2C1)C(C)C (stereo partly drawn)

[reply]
["8.9 nM", "16 nM", "10.4 nM"]

----------
- subjectOfTest: hERG (KCNH2) (Homo sapiens, UniProt Q12809)
- testMethodNotes: Inhibition of hERG expressed in CHO cells at […] by rubidium efflux assay
- Format: toxicity, cell-based
- conditionParameters: CHO cells that express hERG
metric: inhibition at […]

Before answering, review these 4 worked examples.
INSERT INTO results (compound, measurement) VALUES
  ('CS(=O)(=O)N1CCC(CN(C(=O)Nc2cccc(F)c2)[C@@H]2CC[C@]3(c4cccc(C#N)c4)CC3C2)CC1 (some centres not stated)', '25%'),
  ('CC(C)N(CCN(C(=O)Nc1ccc(F)c(Cl)c1)[C@@H]1CC[C@]2(c3cccc(CN(C)C)c3)CC2C1)C(C)C (some centres not stated)', '-1%'),
  ('CC(C)N(CCN(C(=O)Nc1ccc(F)c(Cl)c1)[C@@H]1CC[C@]2(c3cccc(C(N)=O)c3)CC2C1)C(C)C (some centres not stated)', '21%'),
  ('CCN(CC)Cc1cccc([C@]23CC[C@@H](N(CCN(C(C)C)C(C)C)C(=O)Nc4ccc(F)c(Cl)c4)CC2C3)c1 (some centres not stated)', '15%');

Hello, I would appreciate it if you could give inhibition at […] for each entry below.
1. CS(=O)(=O)N1CCC(CN(C(=O)Nc2ccc(F)c(F)c2)[C@@H]2CC[C@]3(c4cccc(C#N)c4)CC3C2)CC1 (some centres not stated)
2. CCS(=O)(=O)N1CCC(CN(C(=O)Nc2ccc(F)c(F)c2)[C@@H]2CC[C@]3(c4cccc(C#N)c4)CC3C2)CC1 (some centres not stated)
3. CC(C)N(CCN(C(=O)Nc1ccc(F)c(Cl)c1)[C@@H]1CC[C@]2(c3cccc(CN4CCN(C)CC4)c3)CC2C1)C(C)C (some centres not stated)
4. CS(=O)(=O)N1CCC(CCN(C(=O)Nc2ccc(F)c(C(F)(F)F)c2)[C@@H]2CC[C@]3(c4cccc(C#N)c4)CC3C2)CC1 (some centres not stated)
5. CN(C)Cc1cccc([C@]23CC[C@@H](N(CC4CCN(S(C)(=O)=O)CC4)C(=O)Nc4cc(Cl)nc(Cl)c4)CC2C3)c1 (some centres not stated)

[reply]
["15%", "25%", "10%", "18%", "8%"]

Could you tell me inhibition at […] for each of these compounds? They are listed below.
1. CC(C)N(CCN(C(=O)Nc1ccc(F)c(Cl)c1)[C@@H]1CC[C@]2(c3cccc(C#N)c3)CC2C1)C(C)C (some centres not stated)
2. CC(C)N(CCN(C(=O)Nc1ccc(F)c(Cl)c1)[C@@H]1CC[C@]2(c3cccc(CN)c3)CC2C1)C(C)C (some centres not stated)
3. CS(=O)(=O)N1CCC(CN(C(=O)Nc2ccc(F)c(Cl)c2)[C@@H]2CC[C@]3(c4cccc(C#N)c4)CC3C2)CC1 (some centres not stated)
4. CS(=O)(=O)N1CCC(CN(C(=O)Nc2cc(Cl)nc(Cl)c2)[C@@H]2CC[C@]3(c4cccc(CN5CC[C@H](O)C5)c4)CC3C2)CC1 (some centres not stated)
5. CC(=O)NCc1cccc([C@]23CC[C@@H](N(CCN(C(C)C)C(C)C)C(=O)Nc4ccc(F)c(Cl)c4)CC2C3)c1 (some centres not stated)
6. CN(C)Cc1cccc([C@]23CC[C@@H](N(CC4CCN(S(C)(=O)=O)CC4)C(=O)Nc4ccc(F)c(Cl)c4)CC2C3)c1 (some centres not stated)
7. COC(=O)c1cccc([C@]23CC[C@@H](N(CCN(C(C)C)C(C)C)C(=O)Nc4ccc(F)c(F)c4)CC2C3)c1 (some centres not stated)

[reply]
1. 44%
2. 22%
3. 6%
4. -7%
5. 62%
6. 7%
7. 57%

inhibition at […] measured on CC(C)N(CCN(C(=O)Nc1ccc(F)c(Cl)c1)[C@@H]1CC[C@]2(c3cccc(CNS(C)(=O)=O)c3)CC2C1)C(C)C (some centres not stated) = 17%

Data provenance is ChEMBL document CHEMBL1143739.
